experimental system: GLYT1 (Mus musculus, UniProt P28571)
Sequence (P28571 1-692): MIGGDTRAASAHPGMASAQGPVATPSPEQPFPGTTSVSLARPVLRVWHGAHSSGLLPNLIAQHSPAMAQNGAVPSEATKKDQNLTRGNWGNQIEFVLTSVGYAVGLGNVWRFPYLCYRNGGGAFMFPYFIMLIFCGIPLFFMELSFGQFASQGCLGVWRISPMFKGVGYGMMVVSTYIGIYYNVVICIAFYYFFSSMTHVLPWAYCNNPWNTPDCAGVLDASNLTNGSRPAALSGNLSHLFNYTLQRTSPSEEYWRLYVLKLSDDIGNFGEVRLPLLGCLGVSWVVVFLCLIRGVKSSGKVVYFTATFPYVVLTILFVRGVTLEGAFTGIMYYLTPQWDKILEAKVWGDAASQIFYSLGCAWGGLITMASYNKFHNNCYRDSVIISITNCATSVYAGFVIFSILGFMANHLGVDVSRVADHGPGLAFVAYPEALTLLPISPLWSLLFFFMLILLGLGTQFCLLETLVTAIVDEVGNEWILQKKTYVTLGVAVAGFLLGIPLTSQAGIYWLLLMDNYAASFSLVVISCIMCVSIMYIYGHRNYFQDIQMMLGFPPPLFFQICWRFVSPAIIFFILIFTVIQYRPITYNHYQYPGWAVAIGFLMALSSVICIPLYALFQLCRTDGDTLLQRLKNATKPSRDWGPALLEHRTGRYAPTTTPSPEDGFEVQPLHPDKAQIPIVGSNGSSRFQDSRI
assay overview: ex vivo 3H-glycine uptake by peripheral blood cells of orally dosed mice vs free plasma concentration
reported property: pEC50
Lab note — pEC50 values are minus log10 of concentrations in M.

Problem: Recorded pEC50 for `C[C@H](Oc1ccc(S(C)(=O)=O)cc1C(=O)N1CCN(c2ncc(C(F)(F)F)cc2F)CC1)C(F)(F)F` with GLYT1 (Mus musculus, UniProt P28571), please?
Result: 8.92
